# Test system: Influenza virus A/WSN/33 (H1N1)
# ASSAY_INFO: microbe, parasite or virus in culture
# Assay type: cell-based
# EXPERIMENTAL_SETUP: 72 h; viral strain: Influenza virus A/WSN/33 (H1N1); Cell: MDBK; […]; 3 days; read-out: IC50
ENDPOINT_NAME: IC50 (ng/mL)
The answer is to be given in ng/mL; state only the numeric part.

Known value: Influenza virus A/WSN/33 (H1N1) IC50 of the compound C[C@H]1CC[C@H]2C(C)(C)C(=NO)CC[C@]23Oc2c(c(O)cc4c2CNC4=O)C[C@]13C [Compound (51a)] equals 1.6

Known value: Influenza virus A/WSN/33 (H1N1) IC50 of the compound C[C@H]1CC[C@H]2C(C)(C)C=CC[C@]23Oc2c(c(O)cc4c2CNC4=O)C[C@]13C [Compound (41a)] equals 2

Known value: Influenza virus A/WSN/33 (H1N1) IC50 of the compound `C[C@H]1CC[C@H]2C(C)(C)[C@@H](O)CC[C@]23Oc2c(c(O)cc4c2CNC4=O)C[C@]13C` equals 1

Known value: Influenza virus A/WSN/33 (H1N1) IC50 of the compound C[C@H]1CC[C@H]2C(C)(C)[C@@H](O)CC[C@]23Oc2c(c(O)cc4c2CNC4)C[C@]13C [Compound (34a)] equals 40

Known value: Influenza virus A/WSN/33 (H1N1) IC50 of the compound C[C@H]1CC[C@H]2C(C)(C)C(=NNC(N)=O)CC[C@]23Oc2c(c(O)cc4c2CNC4=O)C[C@]13C [Compound (51d)] equals 5
